Data provenance: paper PMC428586

- Tested on: hamster oviduct (infundibulum)
- experimental_details: Oocyte pickup rate assay, hamster oviduct explants in vitro
- Format: cell-based, golden hamster (Mesocricetus auratus)
- assay_conditions: mean percentage of inhibition at the LOAEL
quantity_kind: Efficacy, Oocyte Pickup Rate (%)

>>> assay_result("c1cnccn1 [pyrazine]")
29
>>> assay_result("COc1nccnc1C [2-methoxy-3-methylpyrazine]")
13
>>> assay_result("Cc1cnc(C)c(C)n1 [2,3,5-trimethylpyrazine]")
10

====

Entries and their Efficacy, Contraction Rate
- System: hamster oviduct infundibular smooth muscle
- experimental_details: Infundibular smooth muscle contraction assay, hamster oviduct explants in vitro
- Format: cell-based, golden hamster (Mesocricetus auratus)
- assay_conditions: mean percentage of inhibition at the LOAEL
quantity_kind: Efficacy, Contraction Rate (%)

>>> assay_result("Cc1cnc(C)c(C)n1")
58
>>> assay_result("Cc1cnc(C)cn1")
40
>>> assay_result("CCc1cnccn1")
38
>>> assay_result("c1cnccn1")
40

====

Entries and their Efficacy, Oocyte Pickup Rate
- Tested on: hamster oviduct (infundibulum)
- experimental_details: Oocyte pickup rate assay, hamster oviduct explants in vitro
- Format: cell-based, golden hamster (Mesocricetus auratus)
- assay_conditions: mean percentage of inhibition at the LOAEL
Marks after values point to notes of the source that are not given here.
quantity_kind: Efficacy, Oocyte Pickup Rate

>>> assay_result("Cc1cnccn1")
"43* %"
>>> assay_result("CCc1cnccn1")
"45* %"
>>> assay_result("Cc1cnc(C)cn1")
"10* %"

====

- System: hamster oviduct infundibular smooth muscle
- experimental_details: Infundibular smooth muscle contraction assay, hamster oviduct explants in vitro
- Assay type: cell-based, golden hamster (Mesocricetus auratus)
- assay_conditions: mean percentage of inhibition at the LOAEL
Marks after values point to notes of the source that are not given here.
quantity_kind: Efficacy, Contraction Rate

>>> assay_result("Cc1cncc(C)n1")
"85*** %"
>>> assay_result("COc1nccnc1C")
"17** %"
>>> assay_result("Cc1cnccn1")
"61** %"
